Target: CCR1 (Homo sapiens)
Sequence (P32246 whole entry): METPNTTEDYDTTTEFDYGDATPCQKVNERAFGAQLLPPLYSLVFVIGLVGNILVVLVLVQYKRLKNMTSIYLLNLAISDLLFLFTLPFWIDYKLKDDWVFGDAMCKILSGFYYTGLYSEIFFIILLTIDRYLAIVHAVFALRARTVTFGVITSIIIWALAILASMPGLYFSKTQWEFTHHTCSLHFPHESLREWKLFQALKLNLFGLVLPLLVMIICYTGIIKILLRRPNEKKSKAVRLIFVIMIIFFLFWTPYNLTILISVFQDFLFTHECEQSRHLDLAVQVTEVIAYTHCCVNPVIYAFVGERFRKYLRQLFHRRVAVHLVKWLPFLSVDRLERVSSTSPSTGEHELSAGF
Test: calcium flux in CCR1 transfected cells, Method B (Calcium 4 dye, HAMAMATSU FDSS6000)
Assay type: cell-based
Conditions: cells stably expressing recombinant CCR1 and G-alpha-16, MIP-1alpha at EC80
Listing of recorded pIC50 by entry.
Scale note: pIC50 = -log10(concentration in M).

Here are 3 molecules together with their reported answers.
CCC[C@H](NC(=O)N1c2cnn(-c3ccc(F)cc3)c2CCC1C(F)(F)F)c1cncc(S(C)(=O)=O)c1 (stereo partly shown) [Example 61] = 8.10
CCC[C@H](NC(=O)N1c2cnn(-c3ccc(F)cc3)c2CCC1C(F)(F)F)c1ccc(O)c(S(C)(=O)=O)c1 (stereo partly shown) [Example 96] = 8.15
CCC[C@H](NC(=O)N1c2cnn(-c3ccc(F)cc3)c2CCC1C(F)(F)F)c1ccc(OC)c(S(C)(=O)=O)c1 (stereo partly shown) [Example 95] = 8.22

Please examine the following record next.
What measured pIC50 goes with C[C@H](NC(=O)N1CCCc2c1cnn2-c1ccc(F)cc1)c1cncc(S(C)(=O)=O)c1 [Example 44] ?
7.74
